Test system: HEK293
procedure.summary: Activation of Wnt/beta-catenin signaling pathway (unknown origin) expressed in HEK293 cells harboring pEGFP-C1/TOP Flash/LacZ in Wnt3a conditioned medium after 6 hrs by luciferase reporter gene assay
Format: cell-based
test.parameters: Homo sapiens
Could you label it Satisfied if measured CD is 2 µM or higher, and Not satisfied otherwise?

// below: answered compounds
Qu. Determine whether this compound has CD no lower than 2 µM: CCN1Cc2cc(OCc3cc(C)n(C)n3)ccc2-c2cccc(C)c21
Ans. Satisfied

Qu. Determine whether this compound has CD no lower than 2 µM: CCN1Cc2cc(OCc3cc(C)nn3C)ccc2-c2cccc(C)c21
Ans. Not satisfied

Qu. Determine whether this compound has CD no lower than 2 µM: CCN1Cc2cc(OC)c(OC)cc2-c2cccc(C)c21
Ans. Satisfied

Further cases:
Qu. Determine whether this compound has CD no lower than 2 µM: CCN1Cc2cc(OCc3cc(C)nn3C)c(OCc3cc(C)nn3C)cc2-c2cccc(C)c21
Ans. Not satisfied

Qu. Determine whether this compound has CD no lower than 2 µM: CCN1Cc2cc(OCc3cccnc3)c(OCc3cccnc3)cc2-c2cccc(C)c21
Ans. Satisfied

Qu. Determine whether this compound has CD no lower than 2 µM: CCN1Cc2cc(OCc3cccnc3)ccc2-c2cccc(C)c21
Ans. Not satisfied
